Biological target: LTC4 synthase (Homo sapiens, UniProt Q16873)
Sequence (Q16873 whole entry): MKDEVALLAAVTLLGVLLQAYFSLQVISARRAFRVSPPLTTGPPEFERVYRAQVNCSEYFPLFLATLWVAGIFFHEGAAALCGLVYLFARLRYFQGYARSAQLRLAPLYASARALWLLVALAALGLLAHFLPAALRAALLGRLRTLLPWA
Assay: Test 1 in vitro assay: LTC4 synthase converts LTA4 to LTC4, HTRF detection
Type: biochemical
Set-up: made in house; host or cells: Pichia pastoris
Conditions: Table 2; Test 1 (unless otherwise indicated)
pIC50: −log10 of the molar value.
Classification field: enter 1 for pIC50 values not below 7, -1 for values below it.

Consider the worked cases shown below.
q: Please tell me: is the compound CN(c1ccc(Cl)cc1)c1ccc(C(=O)c2ccc(C(=O)CCC3CCCCC3)c(C(=O)O)c2)nc1 [Example 18] at or over 7 in terms of pIC50?
a: 1

q: Please tell me: is the compound COc1ccc(C2(C(=O)c3ccc(C(=O)c4ccc(N(C)c5ccc(Cl)cc5)cn4)cc3C(=O)O)CC2)cc1 [Example 10] at or over 7 in terms of pIC50?
a: 1

q: Please tell me: is the compound CN(c1ccc(Cl)cc1)c1ccc(C(=O)c2ccc(C(=O)CC(C)(C)C)c(C(=O)O)c2)nc1 [Example 17] at or over 7 in terms of pIC50?
a: -1

q: Please tell me: is the compound COc1cccc(C(=O)c2ccc(C(=O)c3ccc(N(CC4CC4)c4ccc(Cl)cc4)cn3)cc2C(=O)O)c1 [Example 13] at or over 7 in terms of pIC50?
a: 1

Next compound, please.
q: Please tell me: is the compound O=C(c1ccc(C(=O)c2cccc(O)c2)c(C(=O)O)c1)c1ccc(N(CC2CC2)c2ccc(Cl)cc2)cn1 [Example 14] at or over 7 in terms of pIC50?
a: 1
